src = patent US8026255B2

- Assay system: human subtype 5 somatostatin receptor (Homo sapiens, UniProt P35346)
- Sequence (P35346 whole entry): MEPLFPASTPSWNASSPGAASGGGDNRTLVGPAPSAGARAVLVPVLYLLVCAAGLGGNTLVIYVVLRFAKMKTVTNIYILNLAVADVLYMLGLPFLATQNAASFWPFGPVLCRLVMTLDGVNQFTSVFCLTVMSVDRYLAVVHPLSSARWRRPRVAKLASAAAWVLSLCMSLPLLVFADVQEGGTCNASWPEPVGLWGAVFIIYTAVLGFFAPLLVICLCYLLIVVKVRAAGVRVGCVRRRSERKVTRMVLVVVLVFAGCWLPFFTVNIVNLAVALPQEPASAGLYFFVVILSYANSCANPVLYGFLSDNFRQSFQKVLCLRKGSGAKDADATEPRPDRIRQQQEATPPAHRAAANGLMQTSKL

Input smiles: CCOc1cc(CN2CCC(Nc3nc(C)c(-c4ccccc4)cc3C#N)CC2)ccc1OC
Assay system: human subtype 5 somatostatin receptor (Homo sapiens, UniProt P35346)
Ki (nM): 789
